Assay: Rat PK test
Assay type: in vivo
Details: plasma, male SD rats, intravenous 0.1 mg/kg, cassette dosing, read-out: CL total (total clearance) (converted)
OBSERVABLE: clearance

input: Give the measured clearance of `CNC(=O)c1ccc(Cc2cc(C(=O)N[C@H]3CCOC[C@@H]3O)c(OC)c3c2OCC3)cc1F` .
output: 9.05 mL/min/kg

input: Moving on to the next compound: `Cn1cc(-c2ccc(Cc3cc(C(=O)N[C@H]4CCOC[C@@H]4O)c(F)c4c3OCC4)cn2)cn1`
output: 6.5 mL/min/kg

input: Another compound to check: `Cn1cnc(-c2ccc(Cc3cc(C(=O)N[C@H]4CCOC[C@@H]4O)c(F)c4c3OCC4)cc2)c1`
output: 11.1 mL/min/kg

input: Next up: `CCOCCNC(=O)c1ccc(Cc2cc(C(=O)N[C@H]3CCOC[C@@H]3O)c(F)c3c2OCC3)cc1F`
output: 22.9 mL/min/kg

input: Same question, `COCCCNC(=O)c1ccc(Cc2cc(C(=O)N[C@H]3CCOC[C@@H]3O)c(OC)c3c2CCC3)cc1F` this time
output: 18.6 mL/min/kg

input: // same read-out, input: `COCCNC(=O)c1ccc(Cc2cc(C(=O)N[C@H]3CCOC[C@@H]3O)c(F)c3c2OCC3)cc1F`
output: 13.7 mL/min/kg

---

Would you kindly list efflux ratio at 1 h, 10 μmol/L for each of these molecules?
Molecular target: MDR1 (Homo sapiens)
Construct: expressed in transfected cells
Sequence (P08183 whole entry): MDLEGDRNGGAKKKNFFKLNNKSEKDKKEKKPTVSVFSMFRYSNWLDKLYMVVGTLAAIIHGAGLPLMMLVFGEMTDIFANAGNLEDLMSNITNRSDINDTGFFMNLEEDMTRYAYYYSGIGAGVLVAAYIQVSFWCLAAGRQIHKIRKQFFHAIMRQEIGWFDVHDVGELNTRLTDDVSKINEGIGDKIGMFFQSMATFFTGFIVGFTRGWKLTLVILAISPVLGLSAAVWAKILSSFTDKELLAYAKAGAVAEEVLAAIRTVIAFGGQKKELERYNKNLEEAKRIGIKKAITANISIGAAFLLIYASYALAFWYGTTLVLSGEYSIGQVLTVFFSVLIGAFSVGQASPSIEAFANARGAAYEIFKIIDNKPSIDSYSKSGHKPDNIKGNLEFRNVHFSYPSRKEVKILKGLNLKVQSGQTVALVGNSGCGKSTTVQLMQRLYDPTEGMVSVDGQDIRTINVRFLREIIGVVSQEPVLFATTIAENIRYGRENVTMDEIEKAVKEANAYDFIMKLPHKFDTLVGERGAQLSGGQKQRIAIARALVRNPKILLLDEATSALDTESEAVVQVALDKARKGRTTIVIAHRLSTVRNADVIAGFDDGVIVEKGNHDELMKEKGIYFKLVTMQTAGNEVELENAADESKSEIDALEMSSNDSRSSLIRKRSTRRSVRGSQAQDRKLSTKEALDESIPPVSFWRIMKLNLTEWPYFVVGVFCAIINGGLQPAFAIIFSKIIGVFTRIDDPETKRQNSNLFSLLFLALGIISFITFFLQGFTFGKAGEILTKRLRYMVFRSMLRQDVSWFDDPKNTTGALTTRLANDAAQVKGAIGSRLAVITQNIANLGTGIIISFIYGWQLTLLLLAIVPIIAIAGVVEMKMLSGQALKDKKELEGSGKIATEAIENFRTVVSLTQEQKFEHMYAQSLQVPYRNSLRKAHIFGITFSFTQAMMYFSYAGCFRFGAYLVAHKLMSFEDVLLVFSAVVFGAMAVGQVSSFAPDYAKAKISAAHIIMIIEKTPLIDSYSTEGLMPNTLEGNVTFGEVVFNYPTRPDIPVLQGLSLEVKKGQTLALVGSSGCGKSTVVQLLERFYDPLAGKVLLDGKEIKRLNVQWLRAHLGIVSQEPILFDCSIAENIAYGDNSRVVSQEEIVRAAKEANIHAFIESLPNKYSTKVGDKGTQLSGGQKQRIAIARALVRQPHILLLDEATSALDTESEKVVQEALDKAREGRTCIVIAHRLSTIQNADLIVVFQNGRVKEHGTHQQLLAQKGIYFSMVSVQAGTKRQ
Assay: MDR1 membrane permeability test
Assay type: in vitro ADME
Details: pH 7.4, human MDR1-expressing LLC-PK1 cells, 10 μmol/L test compound, read-out: Efflux ratio (ER)

input: May I ask what efflux ratio at 1 h, 10 μmol/L has been recorded for Cn1cc(-c2ccc(Cc3cc(C(=O)N[C@H]4CCOC[C@@H]4O)c(F)c4c3OCC4)cn2)cn1 [Example 6] ?
output: 18

input: Another molecule: CNC(=O)c1ccc(Cc2cc(C(=O)N[C@H]3CCOC[C@@H]3O)c(OC)c3c2OCC3)cc1F [Example 31]
output: 28

input: // next record COCCNC(=O)c1ccc(Cc2cc(C(=O)N[C@H]3CCOC[C@@H]3O)c(F)c3c2OCC3)cc1F [Example 13]
output: 10

input: Same thing, different molecule: CCOCCNC(=O)c1ccc(Cc2cc(C(=O)N[C@H]3CCOC[C@@H]3O)c(F)c3c2OCC3)cc1F [Example 14]
output: 9.3

input: Also Cn1cnc(-c2ccc(Cc3cc(C(=O)N[C@H]4CCOC[C@@H]4O)c(F)c4c3OCC4)cc2)c1 [Example 5] , if possible.
output: 7.3

input: What do you get for COCCCNC(=O)c1ccc(Cc2cc(C(=O)N[C@H]3CCOC[C@@H]3O)c(OC)c3c2CCC3)cc1F [Example 60] ?
output: 15

---

Target: human M1 receptor (Homo sapiens, UniProt P11229)
Sequence (P11229 whole entry): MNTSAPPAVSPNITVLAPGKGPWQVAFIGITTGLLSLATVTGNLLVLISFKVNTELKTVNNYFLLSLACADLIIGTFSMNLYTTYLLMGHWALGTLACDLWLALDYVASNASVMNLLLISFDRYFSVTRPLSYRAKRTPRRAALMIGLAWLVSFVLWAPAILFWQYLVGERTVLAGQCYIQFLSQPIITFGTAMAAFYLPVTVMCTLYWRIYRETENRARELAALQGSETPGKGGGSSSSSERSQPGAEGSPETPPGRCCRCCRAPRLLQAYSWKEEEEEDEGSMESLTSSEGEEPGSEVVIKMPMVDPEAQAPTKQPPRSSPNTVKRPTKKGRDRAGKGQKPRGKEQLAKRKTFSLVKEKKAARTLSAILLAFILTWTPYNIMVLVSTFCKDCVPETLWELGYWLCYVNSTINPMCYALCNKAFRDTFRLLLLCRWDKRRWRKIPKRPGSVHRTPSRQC
Test: Measurement of M1 receptor positive allosteric modulator (M1PAM) activity
Settings: PAM activity in presence of acetylcholine at EC20 concentration; CHO-K1 cells stably expressing human M1 receptor; IP1 time-resolved fluorescence
Procedure: Measurement of M1 Receptor Positive Allosteric Modulator (M1PAM) Activity The activity of a test compound in the presence of acetylcholine at an EC20 concentration affording about 20% action of the maximum activity was measured as PAM activity. […] 4 μL of a solution (CisBio™) containing IP1-d2 and Anti-IP1-cryptate Tb conjugate was added the mixture was incubated at room temperature for 1 hr, and the time-resolved fluorescence signal was measured on an Envision plate reader (Perkin Elmer™). […]
OBSERVABLE: EC50 (nM)
Respond numerically; units are nM and should not be typed.

input: Form field: reported EC50 of `O=C(N[C@H]1COCC[C@@H]1O)c1cc(Cc2ccc(-n3cccn3)cc2)c2c(c1F)CCO2`
output: 96

input: // query: `COc1c(C(=O)N[C@H]2CCOC[C@@H]2O)cc(Cc2ccc(C(=O)NC[C@@H]3CCCO3)c(F)c2)c2c1CCO2`
output: 11

input: Request: `COc1c(C(=O)N[C@H]2CCOC[C@@H]2O)cc(Cc2ccc(-c3cn(C)nn3)cc2)c2c1CCC2`
output: 3.2

input: Next: `Cn1cc(-c2ccc(Cc3cc(C(=O)N[C@H]4CCOC[C@@H]4O)c(F)c4c3OCC4)cn2)cn1`
output: 2

input: What would you report for `CNC(=O)c1ccc(Cc2cc(C(=O)N[C@H]3CCOC[C@@H]3O)c(OC)c3c2CCC3)cc1F` ?
output: 8.9

input: Repeat for the following molecule: `Cn1cc(-c2ccc(Cc3cc(C(=O)N[C@H]4CCOC[C@@H]4O)c(F)c4c3OCC4)cc2)nn1`
output: 3.1

---

Target: UniProt:P11229
Experiment: Measurement of M1 receptor positive allosteric modulator (M1PAM) activity
Conditions: PAM activity in presence of acetylcholine at EC20 concentration; CHO-K1 cells stably expressing human M1 receptor; IP1 time-resolved fluorescence
OBSERVABLE: pEC50
Note on units: pEC50 is unitless, being -log10 of a concentration expressed in mol/L.

input: # pEC50 lookup, item `Cn1cnc(-c2ccc(Cc3cc(C(=O)N[C@H]4CCOC[C@@H]4O)c(F)c4c3OCC4)cc2)c1`
output: 8.43

input: Thanks! And `Cn1cc(-c2ccc(Cc3cc(C(=O)N[C@H]4CCOC[C@@H]4O)c(O)c4c3OCC4)cc2)nn1` ?
output: 7.37

input: One more compound: `O=C(NC[C@@H]1CCCO1)c1ccc(Cc2cc(C(=O)N[C@H]3CCOC[C@@H]3O)c(F)c3c2OCC3)cc1F`
output: 8.31

input: Can you handle `COc1c(C(=O)N[C@H]2CCOC[C@@H]2O)cc(Cc2ccc(C(=O)NC[C@@H]3CCCO3)c(F)c2)c2c1CCC2` next?
output: 8.41

Where do the numbers come from? From patent US12162864B2.
